Assay: Volume of distribution at steady state in Beagle dog at 1 mg/kg, iv by LC-MS/MS analysis
Assay type: ADME, organism-based, Canis lupus familiaris
Condition Context: in vivo, read-out: Vdss
Recorded Endpoint: Vd (L/kg)

* COC(=O)N[C@H](C(=O)N1[C@H](c2ncc(-c3ccc4c(c3)-c3ccc(-c5cnc([C@@H]6C[C@@H]7CCC[C@@H]7N6C(=O)[C@@H](NC(=O)OC)[C@@H](C)OC)[nH]5)cc3-4)[nH]2)C[C@@H]2CCC[C@@H]21)[C@@H](C)OC | 1

----------
Assay: Half life in Han Wistar rat at 1 mg/kg, iv by LC-MS/MS analysis
Format: ADME, organism-based
Condition Context: in vivo
Recorded Endpoint: half-life

- COC(=O)N[C@H](C(=O)N1[C@H](c2ncc(-c3ccc4c(c3)-c3ccc(-c5cnc([C@@H]6C[C@@H]7CCC[C@@H]7N6C(=O)[C@@H](NC(=O)OC)[C@@H](C)OC)[nH]5)cc3-4)[nH]2)C[C@@H]2CCC[C@@H]21)[C@@H](C)OC: 1.5 h

----------
Assay: Oral bioavailability in CD1 mouse at 5 mg/kg by LC-MS/MS analysis
Type: ADME, organism-based
Condition Context: in vivo
Recorded Endpoint: bioavailability (%)

• COC(=O)N[C@H](C(=O)N1[C@H](c2ncc(-c3ccc4c(c3)-c3ccc(-c5cnc([C@@H]6C[C@@H]7CCC[C@@H]7N6C(=O)[C@@H](NC(=O)OC)[C@@H](C)OC)[nH]5)cc3-4)[nH]2)C[C@@H]2CCC[C@@H]21)[C@@H](C)OC = 46

----------
Assay: AUC (0 to infinity) in CD1 mouse at 1 mg/kg, iv by LC-MS/MS analysis
Format: ADME, organism-based
Design: dose 1 mg/kg, time infinity, route intravenous
Condition Context: in vivo
Recorded Endpoint: AUC(0-inf)

- COC(=O)N[C@H](C(=O)N1[C@H](c2ncc(-c3ccc4c(c3)-c3ccc(-c5cnc([C@@H]6C[C@@H]7CCC[C@@H]7N6C(=O)[C@@H](NC(=O)OC)[C@@H](C)OC)[nH]5)cc3-4)[nH]2)C[C@@H]2CCC[C@@H]21)[C@@H](C)OC: 1100 ng·h/mL

----------
Assay: AUC (0 to infinity) in CD1 mouse at 5 mg/kg, po by LC-MS/MS analysis
Format: ADME, organism-based
Design: dose 5 mg/kg, route oral, time infinity
Condition Context: in vivo
Recorded Endpoint: AUC(0-inf) (ng·h/mL)

- COC(=O)N[C@H](C(=O)N1[C@H](c2ncc(-c3ccc4c(c3)-c3ccc(-c5cnc([C@@H]6C[C@@H]7CCC[C@@H]7N6C(=O)[C@@H](NC(=O)OC)[C@@H](C)OC)[nH]5)cc3-4)[nH]2)C[C@@H]2CCC[C@@H]21)[C@@H](C)OC: 2550

----------
Assay: Half life in CD1 mouse at 1 mg/kg, iv by LC-MS/MS analysis
Format: ADME, organism-based
Condition Context: in vivo
Recorded Endpoint: half-life (h)

- COC(=O)N[C@H](C(=O)N1[C@H](c2ncc(-c3ccc4c(c3)-c3ccc(-c5cnc([C@@H]6C[C@@H]7CCC[C@@H]7N6C(=O)[C@@H](NC(=O)OC)[C@@H](C)OC)[nH]5)cc3-4)[nH]2)C[C@@H]2CCC[C@@H]21)[C@@H](C)OC: 1.7

// provenance: ChEMBL document CHEMBL4354870
